Test system: RXF 393 renal
Test: NCI-60 one-dose screen, 48 h (100 = growth as untreated, 0 = no growth, -100 = all killed)
Conditions: 10 µM unless noted
Method: Cells are grown in 96 well plates and exposed to the test compound for 48 hours. Compounds are tested at a single concentration, which is 10^-5 M for most compounds. The reported endpoint is percent growth (GI% or GIPRCNT), where numbers from 0 - 100% represent growth inhibition, and numbers from -100% - 0 represent cell death. For example, a value of 40 represents 60% growth inhibition. A value of 0 means no net growth occurred over the course of the experiment. […]
Compounds without any hit were thinned out: in the full panel of roughly 83,000, 20% have a hit.
I would appreciate it if you labelled entries satisfied when growth is 80% or higher, otherwise not satisfied.

Task: Given the entry CC(C)(C)OC(=O)N1CCN(CCn2cc(C(F)(F)F)c3c(Cl)ncnc32)CC1 , answer whether its growth meets or surpasses 80%.
Result: not satisfied

Task: Given the entry COc1ccccc1S(=O)(=O)Nc1ccc2c3c(cc(-c4ccoc4)nc13)C(=O)N2C , answer whether its growth meets or surpasses 80%.
Result: satisfied

Task: Quick check: does CCOc1ccccc1C(=O)N1CCN(c2cc(Cl)cc(Cl)c2)CC1 have growth greater than or equal to 80%?
Result: not satisfied
